Numbers sourced from the supplement of paper PMC4862054.

System: HCC1143
Assay: normalised response (% of control), CellTiter-Glo; higher = more viable cells (100 = DMSO, 0 = benzethonium chloride kill control)
Conditions: incubation time: 72 h
In this section we review reported normalised response values for a set of molecules.
API: value field is a number in %; no unit string.

Here are 3 molecules together with their reported answers.
Exercise: Provide measured normalised response value, entry: O=C(O)C1(C(=O)O)CCC1.[NH2-].[NH2-].[Pt+2] [Carboplatin] (100 nM)
Key: 101

Exercise: Provide measured normalised response value, entry: CCCS(=O)(=O)Nc1ccc(F)c(C(=O)c2c[nH]c3ncc(-c4ccc(Cl)cc4)cc23)c1F [Vemurafenib] (100 nM)
Key: 94.7

Exercise: Provide measured normalised response value, entry: CC[C@H](C)C(=O)O[C@H]1C[C@H](O)C=C2C=C[C@H](C)[C@H](CC[C@@H](O)C[C@@H](O)CC(=O)O)[C@H]21 [Pravastatin] (100 nM)
Key: 101

Next:
Exercise: Provide measured normalised response value, entry: CC[C@@H]1C(=O)N(C)c2cnc(Nc3ccc(C(=O)NC4CCN(C)CC4)cc3OC)nc2N1C1CCCC1 [BI 2536] (10 nM)
Key: 55.7

Exercise: Provide measured normalised response value, entry: N#Cc1ccc(C(c2ccc(C#N)cc2)n2cncn2)cc1 [Letrozole] (100 nM)
Key: 104

Exercise: Provide measured normalised response value, entry: Nc1nc(F)nc2c1ncn2[C@@H]1O[C@H](CO)[C@@H](O)[C@@H]1O [Fludarabine] (100 nM)
Key: 102

Exercise: Provide measured normalised response value, entry: COc1cc2c(NC3CCN(C(C)C)CC3)nc(C3CCCCC3)nc2cc1OCCCN1CCCC1 [UNC0638] (100 nM)
Key: 100

Exercise: Provide measured normalised response value, entry: CCN(CC)CCCC(C)Nc1c2ccc(Cl)cc2nc2ccc(OC)cc12 (stereo not given) [Mepacrine] (500 nM)
Key: 104

Exercise: Provide measured normalised response value, entry: CC1=C(/C=C/C(C)=C/C=C/C(C)=C/C(=O)O)C(C)(C)CCC1 [Tretinoin] (100 nM)
Key: 97.4

Exercise: Provide measured normalised response value, entry: Nc1nc2[nH]cc(CCc3ccc(C(=O)N[C@@H](CCC(=O)O)C(=O)O)cc3)c2c(=O)[nH]1 [Pemetrexed] (100 nM)
Key: 103

###

Test system: CAL-85-1
Assay: normalised viability (% of control), CellTiter-Blue; higher = more viable cells (100 = DMSO, 0 = benzethonium chloride kill control)
Settings: 1 nM; incubation time: 72 h
In this section we review reported normalised viability values for a set of molecules.
API: value field is a number in %; no unit string.

Here are 5 molecules together with their reported answers.
Exercise: Provide measured normalised viability value, entry: Oc1ncc(N(CCCl)CCCl)c(O)n1
Key: 88.9

Exercise: Provide measured normalised viability value, entry: NCCCNCCSP(=O)(O)O
Key: 85.2

Exercise: Provide measured normalised viability value, entry: Nc1nc(F)nc2c1ncn2[C@@H]1O[C@H](CO)[C@@H](O)[C@@H]1O
Key: 92.8

Exercise: Provide measured normalised viability value, entry: N#Cc1ccc(C(c2ccc(C#N)cc2)n2cncn2)cc1
Key: 83.2

Exercise: Provide measured normalised viability value, entry: O=C(O)C1(C(=O)O)CCC1.[NH2-].[NH2-].[Pt+2]
Key: 90.2

Next:
Exercise: Provide measured normalised viability value, entry: Cc1ccc(-c2cc(C(F)(F)F)nn2-c2ccc(S(N)(=O)=O)cc2)cc1
Key: 86.8

Exercise: Provide measured normalised viability value, entry: CCc1cncnc1N1CCN(Cc2nc3ccc(C(F)(F)F)cc3[nH]2)CC1
Key: 99

Exercise: Provide measured normalised viability value, entry: COc1cc2nccc(Oc3ccc(NC(=O)Nc4cc(C)on4)c(Cl)c3)c2cc1OC
Key: 114
